target: cathepsin B (Homo sapiens)
property-label: IC50 (nM)

| structure | property-label | output-unit | endpoint-result |
| --- | --- | --- | --- |
| C#Cc1ccc(COC(=O)N[C@@H](Cc2ccccc2)C(=O)NCC(=O)COC(=O)c2c(C)cccc2C)cc1 | IC50 | nM | 300 |
